Where do the numbers come from? From FireProtDB (doi:10.1016/0022-2836(92)90562-x).

B1: Ribonuclease, P00648 (parent)
chain: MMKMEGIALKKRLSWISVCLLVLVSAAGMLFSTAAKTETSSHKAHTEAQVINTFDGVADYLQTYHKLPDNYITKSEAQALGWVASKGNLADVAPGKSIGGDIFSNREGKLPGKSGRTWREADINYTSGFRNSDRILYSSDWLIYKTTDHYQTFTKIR

- Variants of: B1
- setup conditions: Bacillus amyloliquefaciens; pH 6.3; 25 °C; Urea; Fluorescence; MES-NaOH 450 mM; reversible: yes; structure 1BNI; whole UniProt chain shown
recorded endpoint: ddG of mutation (higher = less stable) (kcal/mol)
Note: unit kcal/mol is implicit; provide only the numeric part.

I156A : 1.27
D55A D59A : 1.41
I135A : 4.02

Request: // fetch ddG of mutation (higher = less stable) given entry "T152V"
Result: 2.14
